Target: SCD1 (Mus musculus)
Sequence (P13516 1-355): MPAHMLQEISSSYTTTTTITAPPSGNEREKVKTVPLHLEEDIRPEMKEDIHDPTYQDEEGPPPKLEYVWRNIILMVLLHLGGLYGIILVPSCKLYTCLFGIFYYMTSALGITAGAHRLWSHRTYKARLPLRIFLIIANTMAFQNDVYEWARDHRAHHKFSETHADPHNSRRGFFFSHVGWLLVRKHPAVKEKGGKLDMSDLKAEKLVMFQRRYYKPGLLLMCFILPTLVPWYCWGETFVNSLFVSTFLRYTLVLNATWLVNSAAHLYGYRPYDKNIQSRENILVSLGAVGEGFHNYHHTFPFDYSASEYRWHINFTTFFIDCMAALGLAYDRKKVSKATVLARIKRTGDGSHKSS
Assay readout: IC50 (nM)
Report the value in nM with no unit label.

>>> quantitative_readout("NC(=O)c1cc(-c2ccc(OCc3cccc(C(F)(F)F)c3)cc2)no1")
1400
>>> quantitative_readout("NC(=O)c1cc(-c2ccc(OCc3cccc(F)c3)cc2)no1")
450
>>> quantitative_readout("NC(=O)c1cc(-c2ccc(Cn3nnc4ccccc43)cc2)no1")
230

Entry NC(=O)c1cc(-c2ccc(OCc3ccc(F)c(F)c3)cc2)no1 — recorded IC50 = 2300

Where these numbers come from: patent US9296711B2
